MEASUREMENT_TARGET: T1, eukaryotically produced human IL-6 (Homo sapiens, UniProt P05231)
T1 construct: purchased Humanzyme HZ-1044; host or cells: Human Embryonic kidney cells
T1 sequence (P05231 30-212): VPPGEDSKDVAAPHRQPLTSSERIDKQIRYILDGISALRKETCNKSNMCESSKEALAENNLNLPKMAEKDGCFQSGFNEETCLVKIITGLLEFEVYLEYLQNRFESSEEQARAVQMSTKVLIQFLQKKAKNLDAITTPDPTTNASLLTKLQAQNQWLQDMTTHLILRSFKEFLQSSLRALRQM
ASSAY: Surface plasmon resonance (Biacore), eukaryotically produced human IL-6 coated on CM5 chip
Type: binding
TEST_CONTEXT: euk; periplasmic fractions, 29B11 chain shuffled
I'd be grateful if you could share measured KA for these entries.
Enter your answer as a number in M⁻¹; do not include the unit.

[Q] # KA lookup, item 55H1c: 29B11 chain shuffled Fab, periplasmic fraction (antibody, V domains shown) VH: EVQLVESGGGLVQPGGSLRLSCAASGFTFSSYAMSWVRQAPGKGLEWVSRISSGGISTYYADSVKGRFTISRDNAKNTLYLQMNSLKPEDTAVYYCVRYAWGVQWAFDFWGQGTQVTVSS VL: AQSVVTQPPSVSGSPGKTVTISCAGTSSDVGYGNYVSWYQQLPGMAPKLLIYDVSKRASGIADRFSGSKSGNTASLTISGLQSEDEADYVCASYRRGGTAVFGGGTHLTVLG
[A] 1.02e+10

[Q] Similarly, 29B11: antagonistic IL-6-specific Fab clone from immunized llama (antibody, listed as Lama glama, V domains shown) VH: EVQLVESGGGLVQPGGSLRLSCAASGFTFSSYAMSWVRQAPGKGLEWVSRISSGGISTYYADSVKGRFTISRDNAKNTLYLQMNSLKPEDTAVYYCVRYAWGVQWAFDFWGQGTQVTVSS VL: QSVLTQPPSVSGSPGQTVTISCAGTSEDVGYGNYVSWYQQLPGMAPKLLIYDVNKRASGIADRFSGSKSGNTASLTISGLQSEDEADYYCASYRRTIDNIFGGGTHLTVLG ?
[A] 1.83e+09

[Q] Now try 47C2 (R4): 29B11 chain shuffled Fab, periplasmic fraction (antibody, listed as Lama glama, V domains shown) VH: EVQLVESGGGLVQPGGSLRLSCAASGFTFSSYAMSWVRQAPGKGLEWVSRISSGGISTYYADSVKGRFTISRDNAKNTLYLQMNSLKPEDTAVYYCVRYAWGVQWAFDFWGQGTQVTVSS VL: ALSYDLTQPPSVSGSPGKTVTISCAGTSSDVGYGNYVSWYQQLPGMAPKILIYDVNKRASGIADRFSGSKSGNTASLTISGLQSEDEADYYCASYRRGETIVFGGGTHLTVLG .
[A] 3.54e+09

These data points were gathered from patent US11827701B2.
